// provenance: the Immune Epitope Database (IEDB)

Target: HLA-A*02:16
Assay: IEDB peptide-MHC binding, purified MHC/direct/fluorescence; filed as Kd, often an IC50 or EC50 that approximates it; bounds were set here for any values at or beyond the usual limits of such assays
Settings: source organism: Limestone Canyon virus
Quick reference for Kd among some sequences
REPORTED METRIC: Kd

>>> recorded_measurement("RTLGVFRYK")
"≥ 20 µM"
>>> recorded_measurement("KLKSVGKAY")
"≥ 20 µM"

* * *

Biological target: HLA-A*02:03
Experiment: IEDB peptide-MHC binding, purified MHC/competitive/radioactivity; filed as Kd, often an IC50 or EC50 that approximates it; bounds were set here for any values at or beyond the usual limits of such assays
Settings: source organism: Homo sapiens
REPORTED METRIC: Kd (nM)

>>> recorded_measurement("VLQRNCAAYL")
94.8

* * *

Biological target: HLA-B*73:01
Test: IEDB peptide-MHC binding, purified MHC/direct/fluorescence; filed as Kd, often an IC50 or EC50 that approximates it; bounds were set here for any values at or beyond the usual limits of such assays
Settings: source organism: Escherichia coli O157:H7
REPORTED METRIC: Kd (µM)

>>> recorded_measurement("RQWGMGFLL")
6

* * *

Target: HLA-A*24:03
Experiment: IEDB peptide-MHC binding, purified MHC/competitive/fluorescence; filed as Kd, often an IC50 or EC50 that approximates it; bounds were set here for any values at or beyond the usual limits of such assays
Conditions: source organism: Vibrio vulnificus YJ016
REPORTED METRIC: Kd

>>> recorded_measurement("LTDEQKNAV")
"≥ 20 µM"

* * *

Biological target: HLA-B*15:01
Test: IEDB peptide-MHC binding, purified MHC/direct/fluorescence; filed as Kd, often an IC50 or EC50 that approximates it; bounds were set here for any values at or beyond the usual limits of such assays
Details: source organism: Vibrio cholerae O1 biovar El Tor
REPORTED METRIC: Kd

>>> recorded_measurement("FATPAFFLI")
"≥ 20 µM"

* * *

Target: HLA-B*07:02
Test: IEDB peptide-MHC binding, purified MHC/direct/fluorescence; filed as Kd, often an IC50 or EC50 that approximates it; bounds were set here for any values at or beyond the usual limits of such assays
Conditions: source organism: Vibrio cholerae
Parameter: Kd. Scope: all listed entries.
REPORTED METRIC: Kd (µM)

>>> recorded_measurement("IHYAGWVSL")
0.323
>>> recorded_measurement("IVKQGRDAL")
0.226

* * *

Biological target: HLA-A*02:03
Assay: IEDB peptide-MHC binding, purified MHC/competitive/fluorescence; filed as Kd, often an IC50 or EC50 that approximates it; bounds were set here for any values at or beyond the usual limits of such assays
Conditions: source organism: Bacillus cereus ATCC 4342
pKd: −log10 of the molar value.
REPORTED METRIC: pKd

>>> recorded_measurement("GLFWGGIWY")
"≤ 4.70"

* * *

Biological target: HLA-B*46:01
Assay: IEDB peptide-MHC binding, purified MHC/direct/fluorescence; filed as Kd, often an IC50 or EC50 that approximates it; bounds were set here for any values at or beyond the usual limits of such assays
Settings: source organism: Influenza A virus (A/equine/New York/1/1999(H3N8))
pKd: −log10 of the molar value.
REPORTED METRIC: pKd

>>> recorded_measurement("RELVRKTRF")
"≤ 4.70"
